Molecular target: CETP (Homo sapiens (Human))
Sequence (P11597 18-493 limits assumed): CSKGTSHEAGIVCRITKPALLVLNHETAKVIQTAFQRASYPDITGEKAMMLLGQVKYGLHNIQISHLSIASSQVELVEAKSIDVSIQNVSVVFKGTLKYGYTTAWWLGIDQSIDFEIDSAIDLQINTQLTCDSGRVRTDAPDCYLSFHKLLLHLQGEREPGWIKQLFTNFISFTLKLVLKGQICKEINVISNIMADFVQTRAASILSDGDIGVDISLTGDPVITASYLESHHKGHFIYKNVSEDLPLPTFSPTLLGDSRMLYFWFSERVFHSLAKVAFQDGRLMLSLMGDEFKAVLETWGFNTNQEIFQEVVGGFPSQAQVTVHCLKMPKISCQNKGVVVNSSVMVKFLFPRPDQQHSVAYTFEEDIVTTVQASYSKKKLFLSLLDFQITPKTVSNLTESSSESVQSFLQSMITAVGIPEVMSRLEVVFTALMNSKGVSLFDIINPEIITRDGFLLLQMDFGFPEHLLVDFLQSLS
Experiment: In vitro radioactive assay of CETP-catalyzed CE and TG transfer (RTA assay), 95% human serum
Type: biochemical
Conditions: RTA assay in 95% human serum; read-out: RTA IC50 (CETP Inhibition)
MEASURED ENDPOINT: pIC50
A value of pIC50 is the negative decimal logarithm of a concentration given in moles per litre.

smiles_string=COc1ncc(-c2ccc(C(=O)O)cc2C)cc1-c1cnc(N2CC(F)C2)nc1CN1C(=O)O[C@H](c2cc(F)cc(F)c2)[C@@H]1C recorded_number=7.46

Query: // lookup pIC50 for COc1ncc(C(C)C)cc1-c1cnc(N2CC(F)(F)C2)nc1CN1C(=O)O[C@H](c2cc(C(F)(F)F)cc(C(F)(F)F)c2)[C@@H]1C
Reply: 8.30

Query: // lookup pIC50 for COc1ncc(-c2c(C)n[nH]c2C)cc1-c1cnc(N2CC(O)C2)nc1CN1C(=O)O[C@H](c2cc(C(F)(F)F)cc(C(F)(F)F)c2)[C@@H]1C
Reply: 6.48
